molecular target: NCX3 (Rattus norvegicus, UniProt P70549); assay: Single-cell Fura-2AM video-imaging, Na+-free-induced [Ca2+]i increase in BHK-NCX3 cells
Sequence (P70549 31-927): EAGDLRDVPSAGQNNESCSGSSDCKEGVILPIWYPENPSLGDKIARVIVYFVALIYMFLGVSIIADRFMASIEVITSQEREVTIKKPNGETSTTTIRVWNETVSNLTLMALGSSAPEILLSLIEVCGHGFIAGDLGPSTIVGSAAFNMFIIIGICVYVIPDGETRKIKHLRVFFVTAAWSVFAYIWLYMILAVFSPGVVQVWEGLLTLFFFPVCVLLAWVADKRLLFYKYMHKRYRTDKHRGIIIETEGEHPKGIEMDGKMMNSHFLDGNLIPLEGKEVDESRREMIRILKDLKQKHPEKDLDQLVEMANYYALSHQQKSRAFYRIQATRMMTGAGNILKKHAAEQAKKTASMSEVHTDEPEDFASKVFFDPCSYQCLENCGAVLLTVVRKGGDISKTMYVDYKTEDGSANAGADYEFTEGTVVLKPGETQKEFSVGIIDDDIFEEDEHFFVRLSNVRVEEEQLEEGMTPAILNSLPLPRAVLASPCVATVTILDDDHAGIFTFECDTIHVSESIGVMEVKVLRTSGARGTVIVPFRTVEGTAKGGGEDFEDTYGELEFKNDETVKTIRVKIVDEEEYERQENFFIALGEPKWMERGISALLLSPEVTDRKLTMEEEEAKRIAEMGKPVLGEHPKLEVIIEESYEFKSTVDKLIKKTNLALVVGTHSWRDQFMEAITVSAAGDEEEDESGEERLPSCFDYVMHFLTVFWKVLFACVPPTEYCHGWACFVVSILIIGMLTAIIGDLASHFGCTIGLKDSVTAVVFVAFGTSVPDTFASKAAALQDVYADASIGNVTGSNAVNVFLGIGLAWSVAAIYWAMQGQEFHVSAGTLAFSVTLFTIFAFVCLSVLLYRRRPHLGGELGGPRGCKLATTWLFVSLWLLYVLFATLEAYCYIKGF
recordedMetric: EC50
Phrase the answer as number then unit, nothing more needed.

Incoming: Suppose we examine the compound CC1CCCCN1C(=O)CN1C(=O)CN=C(c2ccccc2)c2cc([N+](=O)[O-])ccc21 (stereo not shown) ; what EC50 value has been reported?
Outgoing: 2 µM

----------
molecular target: NCX1 (Canis lupus familiaris); construct: expressed in transfected cells; host or cells: BHK (baby hamster kidney) cells, stably transfected; assay: High-throughput screening of NCX1 reverse mode, Fluo-4-loaded BHK-NCX1 cells, Na+-free pulse; format: cell-based, dog; conditions: NCX1/NCX3 reverse-mode screening
recordedMetric: Activity on NCX (SAR discussion, in words)

{"compound": "CC1CCCN(CCN2C(=O)CN=C(c3ccccc3)c3cc([N+](=O)[O-])ccc32)C1 (stereo not drawn)", "reportedMeasurement": "inactive"}
{"compound": "O=C1CN=C(c2ccccc2)c2cc([N+](=O)[O-])ccc2N1CCN1CCCCC1", "reportedMeasurement": "inactive"}
{"compound": "CC1CCCCN1CCN1C(=O)CN=C(c2ccccc2)c2cc([N+](=O)[O-])ccc21 (stereo not drawn)", "reportedMeasurement": "inactive"}

----------
biological target: NCX1 (Canis lupus familiaris); construct: expressed in transfected cells; host or cells: BHK (baby hamster kidney) cells, stably transfected; test: High-throughput screening of NCX1 reverse mode, Fluo-4-loaded BHK-NCX1 cells, Na+-free pulse; format: cell-based, dog; conditions: NCX1 reverse mode, Na+-free; CTL (100); concentration not given (10 nM and 10 μM screened)
recordedMetric: Fluo-experiments on BHK-NCX1
Numbers only.

Examples from the recorded data:
{"molecule": "O=C1CN=C(c2ccccc2)c2cc([N+](=O)[O-])ccc2N1CCN1CCN(c2cccc3ccccc23)CC1", "recordedMetric": "Fluo-experiments on BHK-NCX1", "reportedMeasurement": 100}
{"molecule": "O=C1CN=C(c2ccccc2Cl)c2cc([N+](=O)[O-])ccc2N1CN1CCCC1", "recordedMetric": "Fluo-experiments on BHK-NCX1", "reportedMeasurement": 128}
{"molecule": "O=C(CN1C(=O)CN=C(c2ccccc2)c2cc([N+](=O)[O-])ccc21)N1CCCC1", "recordedMetric": "Fluo-experiments on BHK-NCX1", "reportedMeasurement": 100}

Proceed to the following item.
Incoming: Suppose we examine the molecule CC1CCCCN1CCN1C(=O)CN=C(c2ccccc2)c2cc([N+](=O)[O-])ccc21 (stereo not shown) ; what Fluo-experiments on BHK-NCX1 value has been reported?
Outgoing: 100

----------
molecular target: NCX1 (Canis lupus familiaris, UniProt P23685); experiment: Single-cell Fura-2AM video-imaging, Na+-free-induced [Ca2+]i increase in BHK-NCX1 cells
recordedMetric: EC50 (nM)
Answers are plain numbers, in nM.

Incoming: Suppose we examine the molecule CC1CCCCN1C(=O)CN1C(=O)CN=C(c2ccccc2)c2cc([N+](=O)[O-])ccc21 (stereo not shown) ; what EC50 value has been reported?
Outgoing: 3.5

Where do these numbers come from? They come from paper PMC8713167.
